Source: patent US20250282828A1

- system.tested: Protein N (SARS-CoV-2) (Severe acute respiratory syndrome coronavirus 2, UniProt P0DTC9)
- assay.protocol: BIACORE surface plasmon resonance interaction with immobilized peptide
- Format: binding
- condition.details: analyte 10-200 nM
No end group written: not given here.
Hi there, I'd appreciate the recorded Kd for every entry that follows.
Numeric answer plus unit only.

substance	Kd
Ac-RVTQMNLNDRLASLYDKV [SEQ ID NO: 2]	0.523 µM
RVTQMNLNDRLASLYDKV [SEQ ID NO: 1]	0.00358 µM
NLNDRLASLYDKV [SEQ ID NO: 15]	7.82 µM

Now look at this one.
Lookup: Record request: Kd value, item NDRLASLYDKV [SEQ ID NO: 14]
Found: 1.14 µM
